Target: human ether-à-go-go-related gene (hERG) potassium channel (human, UniProt Q12809);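 note: peak tail current of the secondary pulse compared with the same well before compound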
Sequence (Q12809 whole entry, looked up): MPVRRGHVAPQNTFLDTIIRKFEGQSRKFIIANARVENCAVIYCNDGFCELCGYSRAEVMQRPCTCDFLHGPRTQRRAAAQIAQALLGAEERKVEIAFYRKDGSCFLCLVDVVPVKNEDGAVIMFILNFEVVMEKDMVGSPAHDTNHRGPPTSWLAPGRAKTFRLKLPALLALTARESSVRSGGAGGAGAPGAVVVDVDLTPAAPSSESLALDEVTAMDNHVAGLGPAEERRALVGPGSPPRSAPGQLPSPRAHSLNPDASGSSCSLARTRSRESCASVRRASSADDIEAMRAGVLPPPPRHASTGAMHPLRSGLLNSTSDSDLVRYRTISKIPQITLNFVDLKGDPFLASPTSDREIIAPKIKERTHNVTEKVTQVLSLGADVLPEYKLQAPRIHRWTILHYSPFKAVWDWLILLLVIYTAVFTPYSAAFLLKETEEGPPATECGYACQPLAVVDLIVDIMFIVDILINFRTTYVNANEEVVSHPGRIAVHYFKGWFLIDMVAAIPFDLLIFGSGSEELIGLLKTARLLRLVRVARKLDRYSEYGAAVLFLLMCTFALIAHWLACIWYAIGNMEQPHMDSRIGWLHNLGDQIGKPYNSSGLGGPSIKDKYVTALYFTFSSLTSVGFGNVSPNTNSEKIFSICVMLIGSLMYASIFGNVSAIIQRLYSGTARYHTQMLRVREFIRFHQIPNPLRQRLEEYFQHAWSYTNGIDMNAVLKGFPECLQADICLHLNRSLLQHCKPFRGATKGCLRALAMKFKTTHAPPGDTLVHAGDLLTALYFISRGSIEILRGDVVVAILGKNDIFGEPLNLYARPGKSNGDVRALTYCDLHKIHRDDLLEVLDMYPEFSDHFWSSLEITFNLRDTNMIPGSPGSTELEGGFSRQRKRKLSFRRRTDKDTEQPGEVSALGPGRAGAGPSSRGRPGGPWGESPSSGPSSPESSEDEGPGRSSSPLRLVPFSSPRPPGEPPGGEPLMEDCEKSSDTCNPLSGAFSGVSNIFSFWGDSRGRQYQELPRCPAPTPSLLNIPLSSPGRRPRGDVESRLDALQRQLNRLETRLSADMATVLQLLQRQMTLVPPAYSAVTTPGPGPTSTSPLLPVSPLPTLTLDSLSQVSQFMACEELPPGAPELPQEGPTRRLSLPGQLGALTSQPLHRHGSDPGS
Assay: primary screen, population patch clamp on CHO cells stably expressing hERG; higher = less effect of the substance
Among all 310,000 compounds or so, about 14,000 (4.5%) showed an effect of 50% or more. The effect is printed as a negative number. The entries come from a sample that favours strong results as a whole.
Examples of molecules with documented hERG current change (%, negative = inhibition) at 10uM follow.
State just the number; it will be interpreted in %.

> print(dat)
                                   molecule  value.unit  obs.value
1  OC1C2(Cc3ccccc3)CN3CCN(C2)CC1(Cc1ccccc1)C3 (stereo not drawn)           %      -1.47

Input line: Recorded hERG current change (%, negative = inhibition) at 10uM for Cc1ccc(N2CC(C(=O)NCc3nnnn3-c3ccc(C)c(C)c3)CC2=O)cc1 (stereo not drawn) , please?
Output line: -19.8

Input line: Another molecule to check: CC(=O)C(C)Oc1ccc2c3c(c(=O)oc2c1)CCCC3 (stereo not drawn)
Output line: -12.8

Input line: Another molecule to check: Cc1ccc(S(=O)(=O)N2CCN(C(=O)CN3CCN(C)CC3)C2)cc1
Output line: 14.1

Input line: Another molecule to check: COc1cccc(/C=C/C(=O)c2ccc3c(c2)OCO3)c1OC
Output line: 1.82

Input line: Another molecule to check: COC(=O)C(C)Oc1ccc2c3c(c(=O)oc2c1)CCCCC3 (stereo not drawn)
Output line: -59.2

Input line: Another molecule to check: CC(CN1C(C)CCCC1C)OC(=O)c1ccc(Cl)cc1 (stereo not drawn)
Output line: -44.8

Input line: Another molecule to check: CN(CCc1ccccc1)C1CCCN(S(=O)(=O)CC(F)(F)F)C1 (stereo not drawn)
Output line: -3.61

Input line: Another molecule to check: CCNC(=O)c1c(O)c2ccccc2[nH]c1=O
Output line: -62.5

Input line: Another molecule to check: Cc1cc(S(=O)(=O)N2CCCC(N(C)CCc3ccccn3)C2)c(C)cc1Cl (stereo not drawn)
Output line: -71.6

Input line: Another molecule to check: Cc1cc(Cl)ccc1OCC(=O)Nc1cccc(S(=O)(=O)N2CCCC2)c1
Output line: -1.87

Input line: Another molecule to check: CC(=O)c1cc(CC=C(C)C)c(O)cc1O
Output line: -3.51

Input line: Another molecule to check: O=C(NCc1ccccc1)c1c(O)c2ccccc2[nH]c1=O
Output line: 15.4

Input line: Another molecule to check: COC(=O)c1cccc(CSc2nnc(C)s2)c1
Output line: -1.67

Input line: Another molecule to check: CC(CN1C(C)CCCC1C)OC(=O)c1ccc(Cl)cc1Cl (stereo not drawn)
Output line: -51.7

Input line: Another molecule to check: Cc1c(C#N)c(NC(=O)CCl)n(Cc2cccs2)c1C
Output line: -11.4

Input line: Another molecule to check: CC(C)[C@H](NC(=O)[C@@H]1Cc2ccccc2CN1)C(=O)Nc1ccc2c(c1)OCCO2
Output line: -30.2

Input line: Another molecule to check: CC(=O)c1ccc(S(=O)(=O)N2CCCC(N(C)CCc3ccccc3)C2)cc1 (stereo not drawn)
Output line: -81.2

Input line: Another molecule to check: NCCNC(=O)c1c(NC(=O)c2ccccc2)sc2c1CCCC2
Output line: 15.4

Input line: Another molecule to check: CCOCCCNC(=S)N1CCN(C(=O)C(=O)Nc2ccc(C(=O)OC)cc2)CC1
Output line: -40.6

Input line: Another molecule to check: CCOc1ccc(N(CC(=O)Nc2ccc(OC)cc2)S(C)(=O)=O)cc1
Output line: 3.39
